- Test Summary: In vivo pharmacokinetics and brain targeting in rats, LC-MS/MS of brain homogenate and plasma
- Setup Conditions: rat, RM in brain, intravenous, 0.05 mg/kg/day
Where a name gives a salt, the structure may show the parent alone.
Measured Attribute: AUC(0-inf) (ng·h/mL)
# value in ng·h/mL; strip the unit string

Record summary for C#CCN[C@@H]1CCc2ccccc21 [RM, Rasagiline mesylate] : reported AUC(0-inf) = 28

----------
- Test Summary: In vivo pharmacokinetics and brain targeting in rats, LC-MS/MS of brain homogenate and plasma
- Setup Conditions: rat, RM in brain, intravenous, 0.05 mg/kg/day, read-out: MRT (hr) mean residence time
Counter-ions that a name gives are not always drawn.
Measured Attribute: MRT
Output should be the measured figure followed by the unit it is expressed in.

Input C#CCN[C@@H]1CCc2ccccc21 [RM, Rasagiline mesylate] . Output MRT: 2.27 h

----------
- Test Summary: In vivo pharmacokinetics and brain targeting in rats, LC-MS/MS of brain homogenate and plasma
- Setup Conditions: rat, RM in brain, intravenous, 0.05 mg/kg/day, read-out: T1/2 half (converted)
Structures can show the parent of a compound that is named as a salt.
Measured Attribute: half-life (min)
The answer is to be given in min; state only the numeric part.

Recorded half-life (compound C#CCN[C@@H]1CCc2ccccc21 [RM, Rasagiline mesylate] ): 110

----------
- Test Summary: In vivo pharmacokinetics and brain targeting in rats, LC-MS/MS of brain homogenate and plasma
- Setup Conditions: rat, RM in brain, intravenous, 0.05 mg/kg/day
Counter-ions that a name gives are not always drawn.
Measured Attribute: Cmax (ng/mL)
A number alone suffices; assume ng/mL.

# Cmax (molecule: C#CCN[C@@H]1CCc2ccccc21 [RM, Rasagiline mesylate] ) is 15.8
